Target: Acetylcholinesterase (Homo sapiens)
Sequence (P22303 whole entry): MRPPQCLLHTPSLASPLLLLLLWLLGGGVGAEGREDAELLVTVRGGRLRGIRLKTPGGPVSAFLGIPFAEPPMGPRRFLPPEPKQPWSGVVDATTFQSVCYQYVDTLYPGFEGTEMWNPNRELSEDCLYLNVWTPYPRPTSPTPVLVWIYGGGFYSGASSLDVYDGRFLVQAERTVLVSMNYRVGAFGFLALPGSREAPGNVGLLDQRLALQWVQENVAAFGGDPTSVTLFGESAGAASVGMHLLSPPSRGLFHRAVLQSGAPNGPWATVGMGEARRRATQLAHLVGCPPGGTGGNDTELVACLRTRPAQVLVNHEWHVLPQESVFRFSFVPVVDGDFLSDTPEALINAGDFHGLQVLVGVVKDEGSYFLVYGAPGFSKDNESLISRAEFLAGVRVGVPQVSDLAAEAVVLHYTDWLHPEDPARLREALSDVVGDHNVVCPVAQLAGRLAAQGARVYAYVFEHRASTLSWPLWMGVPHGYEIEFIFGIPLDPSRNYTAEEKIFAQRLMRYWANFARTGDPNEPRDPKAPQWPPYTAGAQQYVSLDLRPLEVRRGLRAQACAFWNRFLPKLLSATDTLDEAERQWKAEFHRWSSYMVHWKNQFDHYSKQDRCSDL
Test: Inhibition of AChE in human erythrocytes using acetylthiocholine iodide as substrate after 15 mins by Ellman's method
Kindly supply the reported IC50 values for the records listed here.
Write the value in nM as a bare number.

Given the entry CCN(CCCCOc1ccc(-c2cc(=O)c3c(O)c(OC)c(OC)cc3o2)cc1)Cc1ccccc1OC , report its measured IC50.
250

Given the entry CCN(CCCCOc1ccc(-c2cc(=O)c3c(OC)c(OC)c(OC)cc3o2)cc1)Cc1ccccc1 , report its measured IC50.
1360

Given the entry CCN(CCCCCCOc1ccc(-c2cc(=O)c3c(O)c(OC)c(OC)cc3o2)cc1)Cc1ccccc1OC , report its measured IC50.
2000

Given the entry CCN(CCCOc1ccc(-c2cc(=O)c3c(O)c(OC)c(OC)cc3o2)cc1)Cc1ccccc1OC , report its measured IC50.
900

###

Biological target: Acetylcholinesterase (Rattus norvegicus, UniProt P37136)
Sequence (P37136 whole entry): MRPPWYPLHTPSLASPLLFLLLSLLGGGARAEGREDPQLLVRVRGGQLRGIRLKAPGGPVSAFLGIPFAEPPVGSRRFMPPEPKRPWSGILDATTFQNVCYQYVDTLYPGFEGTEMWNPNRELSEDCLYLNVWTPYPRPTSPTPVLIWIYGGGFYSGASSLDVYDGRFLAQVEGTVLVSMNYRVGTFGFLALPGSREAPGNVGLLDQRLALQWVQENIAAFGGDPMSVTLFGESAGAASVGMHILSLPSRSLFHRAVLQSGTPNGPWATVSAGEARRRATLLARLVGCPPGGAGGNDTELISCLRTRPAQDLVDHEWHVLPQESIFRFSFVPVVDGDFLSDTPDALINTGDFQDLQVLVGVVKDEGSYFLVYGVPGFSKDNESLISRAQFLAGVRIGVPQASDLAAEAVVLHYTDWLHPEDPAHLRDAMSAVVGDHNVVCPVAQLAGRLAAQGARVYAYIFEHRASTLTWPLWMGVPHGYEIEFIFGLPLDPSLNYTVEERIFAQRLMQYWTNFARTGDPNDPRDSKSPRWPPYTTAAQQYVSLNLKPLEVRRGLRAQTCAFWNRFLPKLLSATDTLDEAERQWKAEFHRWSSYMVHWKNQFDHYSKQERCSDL
Reported Endpoint: pIC50
Scale: pIC50 equals -log10([C]), with [C] in mol/L.

Given the entry COc1ccccc1CN(C)CCCCOc1cccc(-c2cc(=O)c3c(OC)c(OC)c(OC)cc3o2)c1 , report its measured pIC50.
5.58

Given the entry COc1ccccc1CN(C)CCCCOc1cccc(-c2cc(=O)c3c(O)c(OC)c(OC)cc3o2)c1 , report its measured pIC50.
5.11

Given the entry COc1ccccc1CN(C)CCCOc1ccc(-c2cc(=O)c3c(O)c(OC)c(OC)cc3o2)cc1 , report its measured pIC50.
5.30

Given the entry COc1cc2oc(-c3ccc(OCCCCN4CCN(C)CC4)cc3)cc(=O)c2c(OC)c1OC , report its measured pIC50.
5.97

Given the entry CCN(CCCCCCOc1cccc(-c2cc(=O)c3c(OC)c(OC)c(OC)cc3o2)c1)Cc1ccccc1 , report its measured pIC50.
5.69

Given the entry CCN(CCCOc1ccc(-c2cc(=O)c3c(O)c(OC)c(OC)cc3o2)cc1)Cc1ccccc1OC , report its measured pIC50.
5.67

###

Measurement record for Acetylcholinesterase (Rattus norvegicus); quantity recorded: IC50.
Could you kindly put the unit after your number?

Given the entry COc1ccccc1CN(C)CCCOc1ccc(-c2cc(=O)c3c(OC)c(OC)c(OC)cc3o2)cc1 , report its measured IC50.
1.76 µM

Given the entry COc1ccccc1CN(C)CCCCCCOc1ccc(-c2cc(=O)c3c(OC)c(OC)c(OC)cc3o2)cc1 , report its measured IC50.
0.45 µM

Given the entry COc1cc2oc(-c3ccc(OCCCN4CCN(Cc5ccccc5)CC4)cc3)cc(=O)c2c(OC)c1OC , report its measured IC50.
1.8 µM

Given the entry COc1cc2oc(-c3ccc(OCCCCN4CCN(Cc5ccccc5)CC4)cc3)cc(=O)c2c(OC)c1OC , report its measured IC50.
2.56 µM

Given the entry CCN(CCCCOc1ccc(-c2cc(=O)c3c(OC)c(OC)c(OC)cc3o2)cc1)Cc1ccccc1OC , report its measured IC50.
0.12 µM

###

Target: Acetylcholinesterase (Rattus norvegicus, UniProt P37136)
pIC50: −log10 of the molar value.
Label true when pIC50 >= 6; otherwise false.

Could you please find out whether COc1cc2oc(-c3cccc(OCCCCCCN(C)Cc4ccccc4)c3)cc(=O)c2c(OC)c1OC has pIC50 that meets 6 or exceeds it?
false

Could you please find out whether CCN(CCCCCCOc1cccc(-c2cc(=O)c3c(OC)c(OC)c(OC)cc3o2)c1)Cc1ccccc1OC has pIC50 that meets 6 or exceeds it?
true

Could you please find out whether COc1cc2oc(-c3ccc(OCCCN4CCN(C)CC4)cc3)cc(=O)c2c(OC)c1OC has pIC50 that meets 6 or exceeds it?
false

Could you please find out whether CCN(CCOc1cccc(-c2cc(=O)c3c(OC)c(OC)c(OC)cc3o2)c1)Cc1ccccc1 has pIC50 that meets 6 or exceeds it?
false

###

Kindly supply the reported IC50 values for the records listed here.
Target: Acetylcholinesterase (Homo sapiens)
Experiment: Inhibition of AChE in human erythrocytes using acetylthiocholine iodide as substrate after 15 mins by Ellman's method
Write the value in µM as a bare number.

Find IC50 (Acetylcholinesterase (Homo sapiens)) for the entry CCN(CCCCCCOc1ccc(-c2cc(=O)c3c(OC)c(OC)c(OC)cc3o2)cc1)Cc1ccccc1OC
0.43

Find IC50 (Acetylcholinesterase (Homo sapiens)) for the entry COc1ccccc1CN(C)CCCCOc1ccc(-c2cc(=O)c3c(OC)c(OC)c(OC)cc3o2)cc1
0.5

Find IC50 (Acetylcholinesterase (Homo sapiens)) for the entry COc1cc2oc(-c3ccc(OCCCCN(C)Cc4ccccc4)cc3)cc(=O)c2c(OC)c1OC
0.95

Find IC50 (Acetylcholinesterase (Homo sapiens)) for the entry CCN(CCCCOc1ccc(-c2cc(=O)c3c(OC)c(OC)c(OC)cc3o2)cc1)Cc1ccccc1OC
0.08

Find IC50 (Acetylcholinesterase (Homo sapiens)) for the entry CCN(CCCOc1ccc(-c2cc(=O)c3c(OC)c(OC)c(OC)cc3o2)cc1)Cc1ccccc1OC
0.2

###

Molecular target: Acetylcholinesterase (Electrophorus electricus)
Sequence (O42275 whole entry): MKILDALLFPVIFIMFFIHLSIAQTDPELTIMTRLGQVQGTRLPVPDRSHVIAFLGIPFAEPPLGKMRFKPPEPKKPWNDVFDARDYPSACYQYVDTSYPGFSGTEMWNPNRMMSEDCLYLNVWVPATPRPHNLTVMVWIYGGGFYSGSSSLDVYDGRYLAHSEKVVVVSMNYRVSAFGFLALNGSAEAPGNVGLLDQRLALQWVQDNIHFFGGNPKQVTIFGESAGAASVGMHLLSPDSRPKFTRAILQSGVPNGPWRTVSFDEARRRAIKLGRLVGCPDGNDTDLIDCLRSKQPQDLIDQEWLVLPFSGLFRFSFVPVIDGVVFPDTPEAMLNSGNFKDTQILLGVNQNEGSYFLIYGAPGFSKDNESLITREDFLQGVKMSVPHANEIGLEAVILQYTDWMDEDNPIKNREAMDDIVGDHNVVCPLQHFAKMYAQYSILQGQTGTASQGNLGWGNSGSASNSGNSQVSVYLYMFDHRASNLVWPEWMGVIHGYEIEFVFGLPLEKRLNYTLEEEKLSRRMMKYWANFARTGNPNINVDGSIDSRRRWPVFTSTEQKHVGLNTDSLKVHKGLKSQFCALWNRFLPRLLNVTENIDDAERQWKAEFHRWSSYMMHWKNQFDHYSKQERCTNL
Reported Endpoint: pIC50
Scale: pIC50 equals -log10([C]), with [C] in mol/L.

Given the entry CCN(CCCCCCOc1ccc(-c2cc(=O)c3c(O)c(OC)c(OC)cc3o2)cc1)Cc1ccccc1OC , report its measured pIC50.
5.54

Given the entry COc1cc2oc(-c3ccc(OCCCN(C)Cc4ccccc4)cc3)cc(=O)c2c(OC)c1OC , report its measured pIC50.
4.94

Given the entry COc1ccccc1CN(C)CCCCCCOc1ccc(-c2cc(=O)c3c(O)c(OC)c(OC)cc3o2)cc1 , report its measured pIC50.
4.65

Given the entry COc1cc2oc(-c3cccc(OCCN(C)Cc4ccccc4)c3)cc(=O)c2c(OC)c1OC , report its measured pIC50.
4.45

Given the entry COc1ccccc1CN(C)CCCOc1ccc(-c2cc(=O)c3c(O)c(OC)c(OC)cc3o2)cc1 , report its measured pIC50.
4.51

Given the entry COc1ccccc1CN(C)CCCOc1ccc(-c2cc(=O)c3c(OC)c(OC)c(OC)cc3o2)cc1 , report its measured pIC50.
5.07

###

Species on record: Rattus norvegicus
Assay: Selectivity index, ratio of IC50 for rat serum BuChE to IC50 for rat cortex AChE
Reported Endpoint: Ratio IC50
Give the figure only, with no unit attached.

Given the entry COc1cc2oc(-c3cccc(OCCCCCCN(C)Cc4ccccc4)c3)cc(=O)c2c(OC)c1OC , report its measured Ratio IC50.
36.9

Given the entry CCN(CCCOc1ccc(-c2cc(=O)c3c(OC)c(OC)c(OC)cc3o2)cc1)Cc1ccccc1OC , report its measured Ratio IC50.
436

Given the entry COc1cc2oc(-c3cccc(OCCN(C)Cc4ccccc4)c3)cc(=O)c2c(OC)c1OC , report its measured Ratio IC50.
9.6

Given the entry CCN(CCCCCCOc1cccc(-c2cc(=O)c3c(OC)c(OC)c(OC)cc3o2)c1)Cc1ccccc1 , report its measured Ratio IC50.
25.7

Given the entry CCN(CCCOc1cccc(-c2cc(=O)c3c(O)c(OC)c(OC)cc3o2)c1)Cc1ccccc1OC , report its measured Ratio IC50.
152

Given the entry CCN(CCOc1cccc(-c2cc(=O)c3c(OC)c(OC)c(OC)cc3o2)c1)Cc1ccccc1 , report its measured Ratio IC50.
23.6

Given the entry COc1cc2oc(-c3cccc(OCCCN(C)Cc4ccccc4)c3)cc(=O)c2c(OC)c1OC , report its measured Ratio IC50.
22.7

Given the entry COc1ccccc1CN(C)CCCCOc1ccc(-c2cc(=O)c3c(OC)c(OC)c(OC)cc3o2)cc1 , report its measured Ratio IC50.
169

###

Biological target: Amyloid-beta precursor protein (Homo sapiens) (UniProt P05067)
Sequence (P05067 whole entry): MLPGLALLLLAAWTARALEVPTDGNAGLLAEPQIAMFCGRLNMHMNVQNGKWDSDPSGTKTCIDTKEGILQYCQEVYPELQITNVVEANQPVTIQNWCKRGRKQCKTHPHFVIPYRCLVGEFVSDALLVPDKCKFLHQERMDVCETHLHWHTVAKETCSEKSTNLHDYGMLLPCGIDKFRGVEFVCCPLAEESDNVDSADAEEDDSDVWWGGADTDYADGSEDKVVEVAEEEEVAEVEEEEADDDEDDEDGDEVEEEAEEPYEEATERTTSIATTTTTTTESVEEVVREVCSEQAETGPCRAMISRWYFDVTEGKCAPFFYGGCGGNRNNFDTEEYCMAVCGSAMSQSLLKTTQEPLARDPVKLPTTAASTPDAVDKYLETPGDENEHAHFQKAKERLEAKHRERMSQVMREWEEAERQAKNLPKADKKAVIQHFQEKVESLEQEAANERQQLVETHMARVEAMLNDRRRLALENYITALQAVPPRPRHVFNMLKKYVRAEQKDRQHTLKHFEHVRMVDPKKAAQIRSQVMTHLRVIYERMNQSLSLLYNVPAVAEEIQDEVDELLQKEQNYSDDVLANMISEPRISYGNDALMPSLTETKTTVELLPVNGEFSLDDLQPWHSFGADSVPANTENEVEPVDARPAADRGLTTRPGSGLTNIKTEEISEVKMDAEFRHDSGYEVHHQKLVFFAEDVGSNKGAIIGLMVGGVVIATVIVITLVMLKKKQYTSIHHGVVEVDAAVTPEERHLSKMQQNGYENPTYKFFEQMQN
Test: Inhibition of Cu2+-induced amyloid beta (1 to 42) (unknown origin) aggregation at 25 uM after 24 hrs by thioflavin-T based fluorescence assay
Label 1 when inhibition >= 50%; otherwise 0.

Could you please find out whether COc1ccccc1CN(C)CCCCOc1ccc(-c2cc(=O)c3c(OC)c(OC)c(OC)cc3o2)cc1 has inhibition that meets 50% or exceeds it?
0

Could you please find out whether CCN(CCCOc1ccc(-c2cc(=O)c3c(O)c(OC)c(OC)cc3o2)cc1)Cc1ccccc1OC has inhibition that meets 50% or exceeds it?
1

Could you please find out whether CCN(CCCCOc1ccc(-c2cc(=O)c3c(OC)c(OC)c(OC)cc3o2)cc1)Cc1ccccc1OC has inhibition that meets 50% or exceeds it?
0

Could you please find out whether CCN(CCCOc1ccc(-c2cc(=O)c3c(OC)c(OC)c(OC)cc3o2)cc1)Cc1ccccc1OC has inhibition that meets 50% or exceeds it?
0

Could you please find out whether CCN(CCCCCCOc1ccc(-c2cc(=O)c3c(O)c(OC)c(OC)cc3o2)cc1)Cc1ccccc1OC has inhibition that meets 50% or exceeds it?
1

Could you please find out whether CCN(CCCCOc1ccc(-c2cc(=O)c3c(OC)c(OC)c(OC)cc3o2)cc1)Cc1ccccc1 has inhibition that meets 50% or exceeds it?
0

Could you please find out whether COc1cc2oc(-c3ccc(OCCCCN(C)Cc4ccccc4)cc3)cc(=O)c2c(OC)c1OC has inhibition that meets 50% or exceeds it?
0

Could you please find out whether CCN(CCCCOc1ccc(-c2cc(=O)c3c(O)c(OC)c(OC)cc3o2)cc1)Cc1ccccc1OC has inhibition that meets 50% or exceeds it?
1
